Data provenance: patent US20220281876A1

- Study System: BTK (Homo sapiens)
- Construct: endogenous in cells; host or cells: Ramos cells
- Test Description: BTK cell degradation in Ramos cells (total BTK ELISA)
- Type: cell-based
- Experimental Setup: 16 h incubation, FastScan total BTK ELISA
- Experimental: Ramos cells are treated with compounds diluted in 0.1% DMSO, dilution is done according to the following protocol: (1) make 1000x stock solution in DMSO from 10 mM by 5-fold dilution, total 7 doses were included; (2) make 10x solution in cell culture medium by transferring 1 ul 1000x stock solution into 99 ul medium; (3) 11 ul of 10× solution is added to cells and incubate for 16 h. Cells in 96 well plate are harvested by centrifugation (1200 rpm), and wash once with ice-cold PBS. […]
Assay Readout: DC50 (nM)

Would you please look over these solved cases?
Compound	Unit	DC50
NC(=O)c1c(-c2ccc(Oc3ccccc3)cc2)nn2c1NCC[C@H]2C1CCN(C(=O)COCCOCCNC(=O)CCCN2CCN(c3ccc4c(c3)C(=O)N(C3CCC(=O)NC3=O)C4=O)CC2)CC1 (some centres unmarked) [Example 42]	nM	624
NC(=O)c1c(-c2ccc(Oc3ccccc3)cc2)nn2c1NCC[C@H]2C1CCN(C(=O)COCCOCCNC(=O)CCCCN2CCN(c3ccc4c(c3)C(=O)N(C3CCC(=O)NC3=O)C4=O)CC2)CC1 (some centres unmarked) [Example 35]	nM	326

[1] NC(=O)c1c(-c2ccc(Oc3ccccc3)cc2)nn2c1NCC[C@H]2C1CCN(C(=O)COCCOCCOCCOCCNC(=O)COc2cccc3c2CN(C2CCC(=O)NC2=O)C3=O)CC1 (some centres unmarked) [Example 29]
[2] NC(=O)c1c(-c2ccc(Oc3ccccc3)cc2)nn2c1NCC[C@H]2C1CCN(CCOCCOCC(=O)Nc2ccc3c(c2)C(=O)N(C2CCC(=O)NC2=O)C3=O)CC1 (some centres unmarked) [Example 24]
[3] NC(=O)c1c(-c2ccc(Oc3ccccc3)cc2)nn2c1NCC[C@H]2C1CCN(C(=O)CCN2CCC(CN3CCN(c4ccc5c(c4)C(=O)N(C4CCC(=O)NC4=O)C5=O)CC3)CC2)CC1 (some centres unmarked) [Example 95]
*Q* Endpoint returns the given compounds ordered by ascending DC50. I'd appreciate it if you listed the labels in the requested order.
*A* 2, 1, 3

----------
- Study System: BTK (Homo sapiens, UniProt Q06187)
- Construct: endogenous in cells; host or cells: Ramos cells
- Sequence (Q06187 whole entry): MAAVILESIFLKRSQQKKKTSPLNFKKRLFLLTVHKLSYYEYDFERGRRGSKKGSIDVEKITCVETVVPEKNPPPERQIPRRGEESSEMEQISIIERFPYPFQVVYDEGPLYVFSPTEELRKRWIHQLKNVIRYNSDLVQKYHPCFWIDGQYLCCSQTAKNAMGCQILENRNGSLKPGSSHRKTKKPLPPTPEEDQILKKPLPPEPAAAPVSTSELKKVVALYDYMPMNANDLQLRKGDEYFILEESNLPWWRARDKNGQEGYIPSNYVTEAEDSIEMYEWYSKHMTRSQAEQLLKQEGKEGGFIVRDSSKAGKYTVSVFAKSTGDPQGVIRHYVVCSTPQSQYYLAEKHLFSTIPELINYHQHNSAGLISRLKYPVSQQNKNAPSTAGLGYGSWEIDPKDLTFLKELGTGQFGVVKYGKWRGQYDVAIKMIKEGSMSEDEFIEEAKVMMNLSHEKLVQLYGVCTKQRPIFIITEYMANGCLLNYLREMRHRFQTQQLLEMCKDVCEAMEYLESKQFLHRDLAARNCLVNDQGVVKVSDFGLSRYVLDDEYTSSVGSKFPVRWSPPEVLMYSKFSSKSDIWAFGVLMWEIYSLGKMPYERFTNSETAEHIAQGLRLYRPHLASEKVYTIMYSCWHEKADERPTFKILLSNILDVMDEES
- Test Description: BTK cell degradation in Ramos cells (total BTK ELISA)
- Format: cell-based
- Experimental Setup: 16 h incubation, FastScan total BTK ELISA
Assay Readout: DC50 (µM)

[P] NC(=O)c1c(-c2ccc(Oc3ccccc3)cc2)nn2c1NCC[C@H]2C1CCN(C(=O)c2cn(CCOCCOCCOCCOCC#Cc3cccc4c3CN(C3CCC(=O)NC3=O)C4=O)nn2)CC1 (some centres unmarked)
[Q] CN(C/C=C/C(=O)N1CCC([C@@H]2CCNc3c(C(N)=O)c(-c4ccc(Oc5ccccc5)cc4)nn32)CC1)CCOCCOCCN1C(=O)CCC(N2Cc3c(N)cccc3C2=O)C1=O (some centres unmarked)
*Q* Sorting by DC50 in descending order, would P or Q appear first? Give the chosen item's label as your response.
*A* Q
(Q: 0.382 µM, P: 0.176 µM)

----------
- Study System: BTK (Homo sapiens, UniProt Q06187)
- Construct: endogenous in cells; host or cells: Ramos cells
- Test Description: BTK cell degradation in Ramos cells (total BTK ELISA)
- Type: cell-based
- Experimental Setup: 16 h incubation, FastScan total BTK ELISA
Assay Readout: DC50 (µM)

Worked examples, 2 molecules total:
Molecule	DC50, µM
NC(=O)c1c(-c2ccc(Oc3ccccc3)cc2)nn2c1NCC[C@H]2C1CCN(C(=O)CCCc2cn(CCOCCNc3cccc4c3C(=O)N(C3CCC(=O)NC3=O)C4=O)nn2)CC1 (stereo partly shown)	0.236
NC(=O)c1c(-c2ccc(Oc3ccccc3)cc2)nn2c1NCCC2C1CCN(C(=O)CC2CCC(N3CCN(c4ccc5c(c4)C(=O)N(C4CCC(=O)NC4=O)C5=O)CC3)CC2)CC1 (stereo in doubt)	0.244

[P] CN(CC1CCN(C(=O)c2ccc(N3CCC(=O)NC3=O)cc2)CC1)C1CC(C(=O)N2CCC([C@@H]3CCNc4c(C(N)=O)c(-c5ccc(Oc6ccccc6)cc5)nn43)CC2)C1 (stereo partly shown)
[Q] CN(C/C=C/C(=O)N1CCC([C@@H]2CCNc3c(C(N)=O)c(-c4ccc(Oc5ccccc5)cc4)nn32)CC1)CCCN1C(=O)CCC(N2Cc3c(N)cccc3C2=O)C1=O (stereo partly shown)
*Q* Select the item whose DC50 value is smaller, choosing between P and Q . // output: label of the selected item
*A* P
